These entries and their values trace back to the supplement of paper PMC8728848.

- MEASURED ON: Fuc(a1-2)[Gal(a1-3)]Gal(b1-4)GlcNAc(b1-2)Man(a1-3)[Fuc(a1-2)[Gal(a1-3)]Gal(b1-4)GlcNAc(b1-2)Man(a1-6)]Man(b1-4)GlcNAc(b1-4)GlcNAc
- PROTOCOL DETAILS: glycan array binding signal (z-score within array); higher = stronger binding
- CONDITION SET: glycan notation: IUPAC condensed, linker removed
Only a selection was taken, and the strongest signals are over-represented in it overall.
Listing of entries alongside the reported glycan array binding signal (z-score).
Give your answer as a number; write no unit.

{"BINDER": "Cohesin-hMARCO (Homo sapiens) (protein) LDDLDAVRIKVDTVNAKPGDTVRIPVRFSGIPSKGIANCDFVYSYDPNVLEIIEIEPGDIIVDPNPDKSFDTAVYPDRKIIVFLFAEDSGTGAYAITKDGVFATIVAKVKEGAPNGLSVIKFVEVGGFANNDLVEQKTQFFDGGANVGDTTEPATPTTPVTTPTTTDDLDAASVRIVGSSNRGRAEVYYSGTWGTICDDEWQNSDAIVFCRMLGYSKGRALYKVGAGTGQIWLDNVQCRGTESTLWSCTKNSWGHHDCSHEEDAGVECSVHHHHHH", "EXPERIMENTAL VALUE": -0.358}

As a next step, examine the binder that follows.
Data request, read-out glycan array binding signal (z-score), for DrGal9 (Danio rerio) (protein) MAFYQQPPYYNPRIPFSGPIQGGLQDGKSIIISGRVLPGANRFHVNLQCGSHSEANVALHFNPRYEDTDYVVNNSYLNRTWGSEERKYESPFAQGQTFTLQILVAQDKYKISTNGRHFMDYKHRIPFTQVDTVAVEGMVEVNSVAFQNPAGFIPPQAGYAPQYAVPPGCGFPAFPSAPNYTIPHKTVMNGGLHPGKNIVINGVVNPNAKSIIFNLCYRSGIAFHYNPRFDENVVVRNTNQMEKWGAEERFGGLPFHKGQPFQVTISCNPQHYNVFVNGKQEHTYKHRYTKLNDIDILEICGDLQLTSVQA
3.36
